# Species on record: Homo sapiens
# ASSAY NAME: Selectivity ratio of Ki for human microsomal CYP1A1 to Ki for human microsomal CYP1A2
This listing pairs compounds with measured Ratio Ki.
MEASURED PROPERTY: Ratio Ki

RECORD SMILES: Cc1cc2c(cc(O)c3c(=O)cc(-c4ccccc4)oc32)o1
RECORDED MEASUREMENT: 11
--
RECORD SMILES: Cc1cc2c(ccc3c(-c4ccccc4)c(C)c(=O)oc32)o1
RECORDED MEASUREMENT: 3.1
--
RECORD SMILES: Cc1cc(=O)oc2c3c(ccc12)OCC=C3
RECORDED MEASUREMENT: 73
--
RECORD SMILES: O=c1cc(-c2ccccc2)oc2c1ccc1ncccc12
RECORDED MEASUREMENT: 0.5
--
RECORD SMILES: Cc1cc2c(ccc3c(-c4ccccc4)cc(=O)oc32)o1
RECORDED MEASUREMENT: 2.4
--
RECORD SMILES: Cc1c(-c2ccccc2)c2ccc3c(c2oc1=O)C=CCO3
RECORDED MEASUREMENT: 11

---

This listing pairs molecules with measured Ratio Ki.
# Species: Homo sapiens
# ASSAY NAME: Selectivity ratio of Ki for human microsomal CYP1A1 to Ki for human microsomal CYP1A2

RECORD SMILES: O=c1cc(-c2ccccc2)c2ccc3c(c2o1)C=CCO3
Ratio Ki: 20

RECORD SMILES: Cc1cc2c(ccc3c(C(F)(F)F)cc(=O)oc32)o1
Ratio Ki: 45

RECORD SMILES: Cc1cc(=O)oc2c1ccc1ncccc12
Ratio Ki: 7.1

RECORD SMILES: O=c1cc(C(F)(F)F)c2ccc3c(c2o1)C=CCO3
Ratio Ki: 155

RECORD SMILES: O=c1cc(-c2ccccc2)oc2c3c(ccc12)OCO3
Ratio Ki: 14

RECORD SMILES: Cc1cc2c(ccc3c(C)cc(=O)oc32)o1
Ratio Ki: 33

RECORD SMILES: Cc1cc2c(ccc3c(=O)cc(-c4ccccc4)oc32)o1
Ratio Ki: 14

---

# TARGET: UniProt:P05177
# Sequence (P05177 whole entry): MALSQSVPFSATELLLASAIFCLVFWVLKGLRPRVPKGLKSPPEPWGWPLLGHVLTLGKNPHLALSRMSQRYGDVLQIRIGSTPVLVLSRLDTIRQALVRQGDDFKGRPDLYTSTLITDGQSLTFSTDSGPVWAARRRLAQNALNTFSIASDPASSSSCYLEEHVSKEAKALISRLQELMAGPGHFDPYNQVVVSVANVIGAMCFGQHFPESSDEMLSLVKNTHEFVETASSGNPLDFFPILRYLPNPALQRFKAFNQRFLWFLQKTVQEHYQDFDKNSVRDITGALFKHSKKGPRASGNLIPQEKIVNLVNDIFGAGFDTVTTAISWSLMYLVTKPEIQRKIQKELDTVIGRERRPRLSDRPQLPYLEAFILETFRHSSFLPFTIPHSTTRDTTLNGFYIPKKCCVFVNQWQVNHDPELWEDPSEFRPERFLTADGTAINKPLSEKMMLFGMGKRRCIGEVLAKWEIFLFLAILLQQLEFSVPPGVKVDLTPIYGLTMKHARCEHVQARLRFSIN
# ASSAY NAME: Inhibition of human microsomal CYP1A2-dependent methoxyresorufin-O-demethylase activity at 10 nM preincubated for 5 mins followed by NADPH regenerating solution and substrate addition measured over 6 mins by spectrofluorimetric analysis relative to control
# CONDITION SET: human microsomal CYP1A2, probe methoxyresorufin (O-demethylation)

RECORD SMILES: Cc1cc2c(ccc3c(=O)cc(-c4ccccc4)oc32)o1
inhibition at 0.1 h, 0.01 µM: > 90%
//
RECORD SMILES: Cc1cc2c(cc(O)c3c(=O)cc(-c4ccccc4)oc32)o1
inhibition at 0.1 h, 0.01 µM: > 90%

All values here come from ChEMBL document CHEMBL3600302.
